target_under_test: recombinant mouse VAP-1 (rmVAP-1) (Mus musculus, UniProt O70423)
Sequence (O70423 28-765 limits assumed): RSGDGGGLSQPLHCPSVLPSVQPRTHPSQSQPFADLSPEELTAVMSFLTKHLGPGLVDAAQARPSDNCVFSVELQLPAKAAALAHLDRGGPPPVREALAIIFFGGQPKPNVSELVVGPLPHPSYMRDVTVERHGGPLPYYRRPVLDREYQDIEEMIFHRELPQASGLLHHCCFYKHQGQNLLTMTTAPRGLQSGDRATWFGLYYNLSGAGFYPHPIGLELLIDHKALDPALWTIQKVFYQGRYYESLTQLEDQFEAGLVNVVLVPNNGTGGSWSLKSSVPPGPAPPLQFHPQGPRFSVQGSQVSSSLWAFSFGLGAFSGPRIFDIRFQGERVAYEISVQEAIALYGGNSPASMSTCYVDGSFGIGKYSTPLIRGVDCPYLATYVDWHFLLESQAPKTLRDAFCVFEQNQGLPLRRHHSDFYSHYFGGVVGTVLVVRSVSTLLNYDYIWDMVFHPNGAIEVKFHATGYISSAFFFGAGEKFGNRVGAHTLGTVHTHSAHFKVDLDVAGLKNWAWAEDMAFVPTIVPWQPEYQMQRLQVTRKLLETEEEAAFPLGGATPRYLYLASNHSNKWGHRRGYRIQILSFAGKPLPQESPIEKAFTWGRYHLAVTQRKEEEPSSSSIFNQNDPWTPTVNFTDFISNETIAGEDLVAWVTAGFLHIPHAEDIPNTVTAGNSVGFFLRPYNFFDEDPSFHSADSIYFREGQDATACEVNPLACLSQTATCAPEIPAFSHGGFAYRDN
protocol_description: VAP-1 oxidative deamination fluorescence assay (Amplex Red, benzylamine), inhibition
stated_conditions: read-out: IC50 mean ± SD, Mouse; recombinant mouse VAP-1, 50 μM BA, 30 minutes at 37°C, three separate determinations
reported_property: IC50 (µM)
Report as a plain number; the unit µM is understood.

Exam item: Quick one: IC50 for NNC(N)=O [Semiarid (SEM), semicarbazide] ?
Marked response: 295

----------
target_under_test: recombinant human VAP-1 (rhVAP-1) (Homo sapiens, UniProt Q16853)
Construct: purchased R&D Systems 3957-AO-010; host or cells: Spodoptera frugiperda Sf21 (baculovirus)
Sequence (Q16853 27-763 limits assumed): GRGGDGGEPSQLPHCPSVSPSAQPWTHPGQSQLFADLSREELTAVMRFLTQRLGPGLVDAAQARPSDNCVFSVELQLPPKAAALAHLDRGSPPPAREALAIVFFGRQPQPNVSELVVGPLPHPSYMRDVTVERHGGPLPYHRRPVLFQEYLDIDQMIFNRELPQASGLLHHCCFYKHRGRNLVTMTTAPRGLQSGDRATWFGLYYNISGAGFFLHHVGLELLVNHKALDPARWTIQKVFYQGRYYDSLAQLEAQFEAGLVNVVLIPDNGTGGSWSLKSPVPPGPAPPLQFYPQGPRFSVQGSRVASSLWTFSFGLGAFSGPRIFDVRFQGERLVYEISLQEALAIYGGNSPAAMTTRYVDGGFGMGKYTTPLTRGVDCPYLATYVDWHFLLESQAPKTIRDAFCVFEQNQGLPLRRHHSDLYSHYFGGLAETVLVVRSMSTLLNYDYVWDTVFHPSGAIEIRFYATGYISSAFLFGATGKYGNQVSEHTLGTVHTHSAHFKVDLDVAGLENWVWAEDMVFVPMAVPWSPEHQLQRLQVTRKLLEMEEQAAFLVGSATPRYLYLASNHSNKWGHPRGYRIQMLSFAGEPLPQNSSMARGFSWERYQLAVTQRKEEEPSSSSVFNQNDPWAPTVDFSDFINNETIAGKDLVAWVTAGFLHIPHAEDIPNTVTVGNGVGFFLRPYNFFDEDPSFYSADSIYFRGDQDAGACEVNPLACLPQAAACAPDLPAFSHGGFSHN
protocol_description: VAP-1 oxidative deamination fluorescence assay (Amplex Red, benzylamine), inhibition
Type: biochemical
stated_conditions: recombinant human VAP-1, 50 μM BA, 30 minutes at 37°C, three separate determinations; read-out: IC50 mean ± SD, Human
reported_property: IC50 (µM)
Report as a plain number; the unit µM is understood.

Exam item: Quick one: IC50 for NNC(N)=O [Semiarid (SEM), semicarbazide] ?
Marked response: 85.9

Exam item: Quick one: IC50 for CC(=O)Nc1nc(CCc2ccc(NC(=N)N)cc2)c(Cc2ccc(S(C)(=O)=O)cc2)s1 [Astellas compound 35c] ?
Marked response: 0.0225

Exam item: Quick one: IC50 for NNc1nncc2ccccc12 [Hydralazine (HYD), hydralazine] ?
Marked response: 7.75

Exam item: Quick one: IC50 for C=C(CNN)c1ccccc1 [LJP-1207] ?
Marked response: 0.252

----------
target_under_test: recombinant mouse VAP-1 (rmVAP-1) (Mus musculus, UniProt O70423)
protocol_description: VAP-1 oxidative deamination fluorescence assay (Amplex Red, benzylamine), inhibition
reported_property: IC50

Exam item: Quick one: IC50 for C=C(CNN)c1ccccc1 ?
Marked response: 102 nM

Exam item: Quick one: IC50 for NNc1nncc2ccccc12 [Hydralazine (HYD), hydralazine] ?
Marked response: 1180 nM

Exam item: Quick one: IC50 for CC(=O)Nc1nc(CCc2ccc(NC(=N)N)cc2)c(Cc2ccc(S(C)(=O)=O)cc2)s1 [Astellas compound 35c] ?
Marked response: 414 nM
